molecular target: HLA-A*2402 (human); assay: iTopia net score;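 note: iScore from iTopia software combining peptide binding, affinity over a dilution series and off-rate after warming to body temperature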
Would you mind telling me the reported iScore of each entry?

Incoming: Form field: reported iScore of KQRGISLLH [cdr2 339-347 KQRGISLLH]
Outgoing: 0.184

Incoming: Param item = VKQRGISLL [cdr2 338-346 VKQRGISLL] ; retrieve measured iScore.
Outgoing: 0.172

Incoming: Name the reported iScore value associated with the binder QMLQSEHPF [cdr2 259-267 QMLQSEHPF]
Outgoing: 0.082

Incoming: For the binder VFAEKITSL [cdr2 176-184 VFAEKITSL] , what iScore is on record?
Outgoing: 0.446

Incoming: Recorded iScore for VEKLVPDSL [cdr2 271-279 VEKLVPDSL] , please?
Outgoing: 0.092

Incoming: Quick check: iScore of PFKEPSQSL [cdr2 282-290 PFKEPSQSL] ?
Outgoing: 0.496

Incoming: Consider the binder shown here: TLLDRNTEL [cdr2 37-45 TLLDRNTEL] What is its recorded iScore?
Outgoing: 0.08

Incoming: Returns the measured iScore for the input binder. Input: ECLQTNIDH [cdr2 120-128 ECLQTNIDH]
Outgoing: 0.095
